# Test system: PfAP2-EXP AP2 domain (GST-tagged)
# Experiment Description: gcPBM binding intensity (ln(normalized median fluorescence intensity)); higher = stronger DNA binding
The full ranking holds about 25,000 sequences; the median of “ln(normalized median fluorescence intensity)” is about 8.6, and the highest 2% start at about 10. This excerpt belongs to a sample that is enriched for the highest values.
Measurement Kind: gcPBM binding intensity (ln)
Note: the reply should be a number with no unit written.

{"Seq String": "TTTGAAATGATATATAAACACACATATATATATATA [CACACA_site9170]", "Data Value": 10.3}
{"Seq String": "TATATATTAAAAATAGTGCAAAATAATATATATATA [GTGCAC_site9716]", "Data Value": 9.85}
{"Seq String": "ATATATATATATATAACACACGTGTATATATATGTA [CACACA_site3644]", "Data Value": 10.2}

Below: the item to evaluate.
Q. Supply measured gcPBM binding intensity (ln) of AATAAATTGAAACACACACACACATATATATATATA [CACACA_site848] in your reply.
A. 10.2
